Reference for the values: a melting point compilation (Tetko et al.; mined from patent text by program, amines drawn as free bases though some values may be those of a salt)

measure name: melting point (°C)

• Cn1cc2c(C(F)(F)F)cc(Cl)nc2n1 = 124
• CC(COC(=O)NC(=O)C(c1ccccc1)c1ccccc1)c1ccccc1 (racemic) = 131

###

melting point listing for selected molecules.

• Cc1cc(Oc2ccc(S(=O)(=O)c3ccc(Cl)cc3)cc2)ccc1N = 200 °C
• COC12CC(C)(c3nnc(-c4cncc(Br)c4)[nH]3)CN(C)C1Cc1c[nH]c3cccc2c13 (stereo not given) = 163 to 168 °C
• N#Cc1ccc(-c2ccc(-c3ccco3)o2)cc1 = 104 to 105 °C

[in] What does the record list as melting point for O=C(O)c1ccccc1C=Cc1cccc(Br)c1 ?
[out] 145 to 150 °C

[in] Follow-up item: CCCCOC(=O)NC(=O)C(c1ccccc1)c1ccccc1
[out] 82 to 84 °C

[in] Follow-up item: CCOP(=O)(CCC(OC)(C(=O)c1ccccc1)c1ccccc1)OCC (stereo not given)
[out] 60 to 62 °C

[in] Follow-up item: COc1cc(-c2cn(Cc3ccccc3)c(=O)c3ccccc23)ccc1O
[out] 165 to 167 °C

[in] Follow-up item: COc1ccc2c(c1OC)C(=O)O[C@@H]2[C@H]1c2c(c(N=[N+]=[N-])c3c(c2OC)OCO3)CCN1C
[out] 177 to 178 °C

[in] Follow-up item: NC1=NC(c2ccc(OC(F)(F)F)cc2)(c2cccc(CCC3CC3)c2)C2=NCCCN12 (stereo not given)
[out] 65 to 77 °C

[in] Follow-up item: CN(C(=O)OC(C)(C)C)[C@@H](Cc1ccc(O)cc1)C(=O)N1CCN(c2ccc(Cl)c(Cl)c2)CC1
[out] 77 to 78 °C

[in] Follow-up item: O=C(c1ccccc1)n1ccc2ccccc21
[out] 54 to 55 °C

[in] Follow-up item: CNC1(c2ccccc2Cl)C(=O)N(S(=O)(=O)c2ccc(NC(=O)c3ccccc3Cl)cc2)c2ccc(Cl)cc21 (stereo not given)
[out] 221 to 222 °C

[in] Follow-up item: O=C1Cc2cc([N+](=O)[O-])ccc2Sc2ccccc21
[out] 171 to 172 °C

[in] Follow-up item: COc1ccc(-c2nc(-c3ccc(Cl)cc3)ncc2C(=O)N2CCOCC2)cc1OC
[out] 168 °C

[in] Follow-up item: FC(F)(F)c1ccccc1-c1n[nH]c(-c2ccccc2C(F)(F)F)n1
[out] 190 to 192 °C

[in] Follow-up item: N[C@@H](CCC(=O)N[C@@H](CS)C(=O)O)C(=O)O
[out] 187 °C

[in] Follow-up item: CCC(C)C(C)C(=O)Nc1ccc2ncn3c(=O)c(C(=O)O)cnc3c2c1 (stereo not given)
[out] 286 to 288 °C

[in] Follow-up item: O=C(Nc1nc(-c2ccco2)c(C(=O)C2CCOCC2)s1)c1ccc(CN2CCCCC2)cc1
[out] 160 to 162 °C

[in] Follow-up item: Cc1c(N2CC(O)C2)c(F)cc2c(=O)c(C(=O)O)cn(C3CC3)c12
[out] 260 to 262 °C

[in] Follow-up item: NS(=O)(=O)c1ccc([C@H]2[C@H](C(=O)Nc3ccc(C(F)(F)F)cc3)C23CCCC3)cc1 (relative stereo)
[out] 234 to 236 °C

[in] Follow-up item: ClCc1ccc(OCc2csc(-c3ccccc3)n2)nc1
[out] 117 to 118 °C
